Biological target: T1, human IL-10 receptor (hIL-10R alpha and beta chains) on HEK-Blue IL-10 reporter cells (human, UniProt Q13651 22-578; Q08334 20-325)
T1 sequence 1: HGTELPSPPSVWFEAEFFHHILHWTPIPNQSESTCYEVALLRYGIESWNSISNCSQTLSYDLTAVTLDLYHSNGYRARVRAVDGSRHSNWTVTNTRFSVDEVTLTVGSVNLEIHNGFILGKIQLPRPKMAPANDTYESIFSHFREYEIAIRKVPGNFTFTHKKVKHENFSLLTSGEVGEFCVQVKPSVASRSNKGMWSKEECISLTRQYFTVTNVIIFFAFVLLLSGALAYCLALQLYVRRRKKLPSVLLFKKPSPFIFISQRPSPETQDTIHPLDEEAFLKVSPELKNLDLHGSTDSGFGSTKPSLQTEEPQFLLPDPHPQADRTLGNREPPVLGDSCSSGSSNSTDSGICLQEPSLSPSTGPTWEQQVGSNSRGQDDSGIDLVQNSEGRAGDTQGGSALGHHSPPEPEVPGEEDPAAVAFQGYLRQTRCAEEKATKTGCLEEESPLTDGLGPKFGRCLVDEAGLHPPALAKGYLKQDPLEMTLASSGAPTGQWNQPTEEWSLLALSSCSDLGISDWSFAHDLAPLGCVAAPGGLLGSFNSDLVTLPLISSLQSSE
T1 sequence 2: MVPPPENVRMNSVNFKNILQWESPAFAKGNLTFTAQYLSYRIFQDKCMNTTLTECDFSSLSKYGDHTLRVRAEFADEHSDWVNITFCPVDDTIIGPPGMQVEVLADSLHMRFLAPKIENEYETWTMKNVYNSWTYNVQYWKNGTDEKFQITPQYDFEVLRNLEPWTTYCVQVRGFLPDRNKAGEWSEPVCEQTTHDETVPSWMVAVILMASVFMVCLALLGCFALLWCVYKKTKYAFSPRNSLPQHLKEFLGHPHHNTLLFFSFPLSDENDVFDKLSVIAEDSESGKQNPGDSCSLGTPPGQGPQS
Experiment: cell-based or functional assay
Property name: Abs 630 (25 nM) (Abs 630)
State just the number; it will be interpreted in Abs 630.

Binder	Unit symbol	Assay value
IL10R binding molecule of SEQ ID NO: 322 (bispecific antibody) QVQLQESGGGSVQAGGSLRLSCAASRYTYNSYCMGWFRQAPGKEREGVATIDSDGMTRYADSVKGRFTISKDNAKNTLYLQMNSLKPEDTAMYYCAADADCTIAAMTTNPLGQGTQVTVSSGGGSQVQLQESGGGSVQAGGSLRLSCAVSGYAYSTYCMGWFRQAPGKEREGVAAIDSGGSTSYADSVKGRFTISKDNAKNTLYLRMNSLKPEDTAMYYCAAVPPPPDGGSCLFLGPEIKVSKADFRYWGQGTQVTVSSASHHHHHH	Abs 630	0.46

Sample IL10R binding molecule of SEQ ID NO: 283 (bispecific antibody) QVQLQESGGGSVQAGGSLRLSCAVSGYAYSTYCMGWFRQAPGKEREGVAAIDSGGSTSYADSVKGRFTISKDNAKNTLYLRMNSLKPEDTAMYYCAAVPPPPDGGSCLFLGPEIKVSKADFRYWGQGTQVTVSSGGGSQVQLQESGGGSVQTGGSLRLSCAASGYTYLRGCMGWFRQAPGKEREGVAVMDVVGDRRSYIDSVKGRFTISRDNAANSVYLQMDNLKPEDTAMYYCTAGPNCVGWRSGLDYWGQGTQVTVSSASHHHHHH — what was its Abs 630 (25 nM)?
0.48
